PROCEDURE_DETAILS: qHTS for induction of synthetic lethality in tumor cells producing 2HG: qHTS for the HT-1080-IDH1KD cell line
STUDY_CONDITIONS: HT-1080 IDH1 knockdown viability, ATP luminescence, 48 h; series mostly up to 46.1 µM
In all, about 360,000 compounds went through this assay and about 7,500 (2.1%) were called active. About 8% were inconclusive and are not listed. Calls come from the whole dose curve; as a rule, active = well fitted cell-killing curve with a large enough effect; inconclusive = small, poorly fitted or top-dose-only effect, or effect the other way, or another doubt; inactive = no such curve, though single readings can be large or run the other way. The entries come from a sample that favours actives as a whole.
Labels: active, inactive

> print(dat)
                                    compound  answer.label
 1  O=C(OC12CC3CC(CC(C3)C1)C2)c1ccc(NCc2cc(O)ccc2O)cc1        active
 2  O=S1(=O)CC(N2CCN(c3ccccn3)CC2)CN1Cc1ccc(F)cc1 (centres undefined)      inactive
 3  COC(=O)c1ccc(COc2ccc(/C=N/NC(=O)C(=O)Nc3ccc(OC)cc3)cc2OC)o1      inactive
 4  COc1cccc(CNC(=O)Cc2csc(Nc3nc(=S)[nH]c4ccccc34)n2)c1      inactive
 5          COc1ccc(/C=N/Nc2ccccc2C(=O)O)cc1      inactive
 6  CCOC(=O)/C(=C\c1ccc([N+](=O)[O-])cc1)C(=O)c1cc(C(C)=O)c(Nc2ccccc2)s1      inactive
 7        CCOC(=O)C(=Cc1ccccc1)C(=O)c1ccccc1        active
 8  Cc1ccccc1NC(=O)NCC1CCN(Cc2cccc(Cl)c2)CC1      inactive
 9  Cc1ccc(S(=O)(=O)C2(S(=O)(=O)c3ccc(C)cc3)CCCC2)cc1        active
10  Cc1ccc(S(=O)(=O)N(C)C2(C)CCS(=O)(=O)C2)cc1 (centres undefined)      inactive
11  CC(CN1CCOCC1)OC(=O)c1ccc(Cl)cc1Cl (centres undefined)      inactive
12  CC(C)NC(=O)N1Cc2cc(C(=O)NCC(F)(F)F)nc(-c3cccc(-c4cc5ccccc5o4)c3)c2[C@@H]1CCO      inactive
13  COc1ccc(/C=N/NC(=O)c2ccccc2)cc1OS(=O)(=O)c1ccccc1        active
14  COc1cc(/C=N/NC(=O)Nc2ccccc2)ccc1OCCOc1ccccc1C        active
